Overview of recorded protein stability index for various variants
B1: SPRY1 (parent)
chain: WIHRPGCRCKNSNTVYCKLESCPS

Variants of: B1
assayText: protein stability index of a GFP-peptide fusion (GPS, HEK-293T) (PSI 1-6); higher = more stable;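 also: lentivirally expressed fusions sorted by FACS into six bins by GFP to DsRed ratio, PSI derived from sequencing read proportions per bin multiplied by bin number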
conditionSet: c terminus: a fixed tail appended
metricName: protein stability index

C17F : 2.98
L19R : 2.73
P5G : 1.85
P23I : 1.32
T14I : 2.6
C22I : 1.84
C17E : 2.39
R8Q : 3.29
R8W : 2.21
C17A : 1.44
T14Q : 2.87
T14C : 2.56
G6H : 2.06
I2Q : 2.82
P23V : 1.47
S24T : 2.1
Y16G : 2.75
